pKd reference
TEST TARGET: T1, VEGF109 (UniProt P15692 214-315, biotinylated where loaded on streptavidin tips)
T1 construct: range 8-109; also called VEGF8-109; biotinylated VEGF109
T1 sequence: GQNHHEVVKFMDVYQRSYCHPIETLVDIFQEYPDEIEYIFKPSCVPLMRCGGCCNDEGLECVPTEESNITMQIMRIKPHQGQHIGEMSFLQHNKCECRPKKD
TEST SUMMARY: BLI (Octet) on VEGF109
To interpret pKd, take it as minus log10 of a concentration measured in moles per litre.

Worked examples follow.
BINDER: chagasin VEGF binder Variant 66-L4-Q (designed binder) MSHKVTKAHNGATLTVAVGELVEIQLPSNYYYDGFAWYFEGGTKESPNESMFTVENKYFPHYQNLGGRYTGAGGTEHFHVTVKAAGTHAVNLTYMGPWLGPSRVLERFTVYLKAN
pKd: 7.10
--
BINDER: chagasin VEGF binder Variant 66-L4-S (designed binder) MSHKVTKAHNGATLTVAVGELVEIQLPSNYYYDGFAWYFEGGTKESPNESMFTVENKYFPHYSNLGGRYTGGAGTEHFHVTVKAAGTHAVNLTYMGPWLGPSRVLERFTVYLKAN
pKd: 7.30
--
BINDER: chagasin VEGF binder Variant 66-L2-K (designed binder) MSHKVTKAHNGATLTVAVGELVEIQLPSNYYKDGFAWYFEGGTKESPNESMFTVENKYFPHYYNLGGRYTGAGGTEHFHVTVKAAGTHAVNLTYMGPWLGPSRVLERFTVYLKAN
pKd: 7.21

Let us examine a further case.
Quick note, pKd for chagasin VEGF binder Variant 66-L4-T (designed binder) MSHKVTKAHNGATLTVAVGELVEIQLPSNYYYDGFAWYFEGGTKESPNESMFTVENKYFPHYTNLGGRYTGGAGTEHFHVTVKAAGTHAVNLTYMGPWLGPSRVLERFTVYLKAN landed at 7.29
